These measurements were taken from patent US12570657B2.

Experiment: Solubility in organic solvents (progressive solvent addition)
Type: physicochemical
Details: acetonitrile, organic solvent or mixture, thermodynamic from solid; read-out: Solubility in acetonitrile
Description: Solubility in organic solvents was measured using the following protocol. Approximately 25 mg portions of meta-topolin and crystalline meta-topolin mesylate salt were placed in 48 different vials, separately. 5 volume aliquots of each solvent were added progressively (repeatedly) to the vials. After each addition, the mixture was checked for dissolution and if no dissolution was visible, the procedure was continued until dissolution was observed, or until 50 volumes have been added.
Assay metric: solubility

// query Could you please provide reported solubility for CS(=O)(=O)O.Oc1cccc(CNc2ncnc3nc[nH]c23)c1 [mT mesylate, 6-(3-hydroxybenzylamino)purine mesylate] ? Thanks!
// result < 250 µg/mL

// query Please supply the value of reported solubility for the item Oc1cccc(CNc2ncnc3nc[nH]c23)c1 [meta-topolin (mT), 6-(3-hydroxybenzylamino)purine]
// result < 250 µg/mL

* * *

System: HOS (human osteosarcoma)
Experiment: In vitro cytotoxicity, Calcein AM assay, HOS
Format: cell-based
Conditions: 3-day Calcein-AM assay
pIC50: −log10 of the molar value.
Assay metric: pIC50

// query Provide only the value of recorded pIC50 for Clc1ccc(CNc2ncnc3nc[nH]c23)cc1
// result < 3.78

// query Specify pIC50 for C/C(=C/CNc1ncnc2nc[nH]c12)CO [Cis-zeatin (cZ), Cis-zeatin] and stop.
// result < 3.78

* * *

Would you kindly list IC50 for each of these compounds?
Tested on: MCF-7 (breast adenocarcinoma)
Assay: In vitro cytotoxicity, Calcein AM assay, MCF7
Assay type: cell-based
Settings: 3-day Calcein-AM assay, mesylate
Where a name gives a salt, the structure may show the parent alone.
Supply the numeric figure in µM, leaving out any unit text.

// query Give a short answer stating reported IC50 for CS(=O)(=O)O.Clc1ccccc1CNc1ncnc2nc[nH]c12 [2ClBAP mesylate, 6-(2-chlorobenzylamino)purine mesylate] .
// result 128

// query // Input: COc1cccc(CNc2ncnc3nc[nH]c23)c1O [2OH3MeOBAP mesylate] . Output its IC50 only.
// result 32.1

* * *

Assay: Aqueous solubility: concentration of saturated solution by HPLC
Assay type: physicochemical
Conditions: water, thermodynamic from solid; read-out: concentration of saturated solution
Assay metric: solubility thermodynamic (µg/mL)
Hi! Could you send only the number? It should be in µg/mL, unit omitted.

// query Quickly give me recorded solubility thermodynamic for CS(=O)(=O)O.Oc1cccc(CNc2ncnc3nc[nH]c23)c1 [mT mesylate, 6-(3-hydroxybenzylamino)purine mesylate]
// result 8000

* * *

Test: Aqueous solubility: concentration of saturated solution by HPLC
Format: physicochemical
Details: water, thermodynamic from solid
Assay metric: solubility thermodynamic (µM)
The answer is to be given in µM; state only the numeric part.

// query Output solubility thermodynamic of c1ccc(CNc2ncnc3nc[nH]c23)cc1 [BAP, 6-benzylaminopurine]
// result 370

* * *

Experiment: Solubility in organic solvents (progressive solvent addition)
Format: physicochemical
Details: methanol, organic solvent or mixture, thermodynamic from solid; read-out: Solubility in methanol
Assay metric: solubility (mg/mL)
Respond numerically; units are mg/mL and should not be typed.

// query Input CS(=O)(=O)O.Oc1cccc(CNc2ncnc3nc[nH]c23)c1 [mT mesylate, 6-(3-hydroxybenzylamino)purine mesylate] , output reported solubility.
// result 0.7

// query Tell me its solubility given Oc1cccc(CNc2ncnc3nc[nH]c23)c1 [meta-topolin (mT), 6-(3-hydroxybenzylamino)purine] as the entry.
// result 5
